From: the nanobody polyreactivity screen of Harvey et al. (2022)

experiment: yeast display, Sf9 membrane polyspecificity reagent, FACS + sequencing; frameworks hold sequencing errors
experimental_endpoint: polyreactivity (PSR sort gate)

// worked examples, polyreactivity (PSR sort gate) included
biosequence: QVQLVESGGGLVQAGGSLRLSCAASGFTFIRNAMGWYRQAPGKERELVAAISWRGVRTYADSVKGRFTISRDNAKNTVYLQMHSQKPEDTAVYYCAARDAHYYPTMGYWGQGTQVTVSS
polyreactivity (PSR sort gate): high polyreactivity
//
biosequence: QVQLVESGGGLVQAGGSLRLSCAASGSIFDTYAMGWYRQAPGKEREFVAAISRNGGSTYYADSVKGRFTISRDNAKNTVYLQMNSLKAEDTAVYYCATDKRHKFDYWGQGTQVTVSS
polyreactivity (PSR sort gate): low polyreactivity
//
biosequence: QVQLVESGGGLVQAGGSLRLSCAASGIIFGINAMGWYRQAPGKERELVATITSGGGTNYADSVKGRFTISRDNAKNTVYLQMNSLKPEDTAVYYCAKPTYRFYWGDFDYWGQGTQVTVSS
polyreactivity (PSR sort gate): low polyreactivity
//
biosequence: QVQLVESGGGLVQAGGSLRLSCAASGIIFGRYAMGWYRQSPGKERELVAAISSRGGSTYYADSVKGRFTISRDNAKNTVYLQMNSLKPEDTAVYYCAATWCFLRGSTKYYYWGQGTQVTVSS
polyreactivity (PSR sort gate): high polyreactivity
//
biosequence: QVQLVDSGGGLVQAGGSLRLSCAASGLIFEVYAMGWYRQAQGKERELVAAISWRGGSTDYADSVKGRFTISRDNAKNTVYLQMNSLKPEDTAFYYCAKGYRGRTTAGNLWEFDYWGQGTQVTVSS
polyreactivity (PSR sort gate): high polyreactivity
//
biosequence: QVQLVESGGGLVQAGGSLRLSCAASGIIIRYYGMGWYRQAPGKERELVARIRWTGGSTYYADSVKGRFTISRDNAKNTVYLQMNSLKPEDTAVYYCNADPWWRFDYWGQGTQVTVSS
polyreactivity (PSR sort gate): low polyreactivity
//
biosequence: QVQLVESGGGLVQAGGSLRLSCAASGSIFAVYAMGWSRQAPGKERELVAAITTSGGSTYYADSVKGRFTISRDNAKNTVYLQMNSLKPEDTAVYYCAAYRGTLLTAYDYWGQGTQVTVSS
polyreactivity (PSR sort gate): low polyreactivity
//
biosequence: QVQLVESGGGLVQAGGSLRLSSAASGSIFGANAIGWYRQAPGKERELVAAISRRGRSTYYADSVKGRFTISRDNAKYTVYLQLNSLKPEDTAVYYSAAKRPQYYVQYGYWGQGTQVTVSS
polyreactivity (PSR sort gate): high polyreactivity

Give its polyreactivity (PSR sort gate) value. Item: "QVQLVESGGGLVQAGGSLRLSCAASGFTFYRYAMGWYRQAPGKERELVAAISWSGGTTYYADSVKGRFTISRDNAKNTVYLQMNSLKPEDTAVYYCNARFIARSGYKVDYDYWGQGTQVTVSS"
high polyreactivity

Give its polyreactivity (PSR sort gate) value. Item: "QVQLVESGGGLVQAGGSLRLSCAASGGTFYRNDMGWYRQAPGKERELVAVITYRGGSTDYADSVKGRFTISRDNAKNTVYFQMNSLKPEDTAVYYCAVDYTFSYPYEDDYWGQGTQVTVSS"
low polyreactivity

Give its polyreactivity (PSR sort gate) value. Item: "QVQLVESGGGLVQAGGSLRLSCAASGYTFKAYAMGWYRQAPGKERELVAGISRSGGSTYYADSVKGRFTISRDNAKNTVYLQMNSLKPEDTAVYYCAADSFSWETVVPSVFEFDYWGQGTQVTVSS"
low polyreactivity
